- STUDY_TARGET: TNK2 (human) (UniProt Q07912)
- Sequence (Q07912 whole entry, looked up): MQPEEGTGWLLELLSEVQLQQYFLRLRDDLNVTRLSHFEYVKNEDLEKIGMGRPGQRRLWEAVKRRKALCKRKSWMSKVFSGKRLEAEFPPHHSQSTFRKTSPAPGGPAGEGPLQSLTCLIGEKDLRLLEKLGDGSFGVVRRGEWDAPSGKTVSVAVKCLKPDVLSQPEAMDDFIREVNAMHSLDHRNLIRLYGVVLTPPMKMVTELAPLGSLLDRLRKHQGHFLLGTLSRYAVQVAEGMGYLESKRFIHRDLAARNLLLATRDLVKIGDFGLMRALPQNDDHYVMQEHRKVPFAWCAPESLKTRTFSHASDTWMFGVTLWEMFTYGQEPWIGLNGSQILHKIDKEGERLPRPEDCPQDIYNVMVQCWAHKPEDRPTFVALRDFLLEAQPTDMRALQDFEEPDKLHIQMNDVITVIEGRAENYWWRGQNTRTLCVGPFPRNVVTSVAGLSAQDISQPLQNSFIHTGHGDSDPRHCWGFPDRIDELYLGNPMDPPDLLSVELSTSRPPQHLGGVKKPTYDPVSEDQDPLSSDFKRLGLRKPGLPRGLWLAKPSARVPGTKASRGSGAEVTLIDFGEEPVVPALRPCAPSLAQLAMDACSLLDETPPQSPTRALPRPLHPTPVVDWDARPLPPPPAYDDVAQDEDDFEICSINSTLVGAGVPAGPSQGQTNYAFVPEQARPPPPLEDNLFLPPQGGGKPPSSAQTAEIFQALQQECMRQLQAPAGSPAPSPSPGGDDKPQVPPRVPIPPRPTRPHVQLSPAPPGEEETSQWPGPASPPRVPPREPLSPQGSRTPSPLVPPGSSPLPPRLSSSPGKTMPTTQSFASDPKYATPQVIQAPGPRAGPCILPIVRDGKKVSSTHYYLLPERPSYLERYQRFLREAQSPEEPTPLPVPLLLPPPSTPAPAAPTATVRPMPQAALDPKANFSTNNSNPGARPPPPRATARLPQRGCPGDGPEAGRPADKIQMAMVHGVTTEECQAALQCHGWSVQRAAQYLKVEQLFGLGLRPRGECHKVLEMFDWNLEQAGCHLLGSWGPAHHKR
- PROTOCOL_NOTES: radiometric filter-binding kinase assay, Kinase HotSpot
- CONDITION_DESCRIPTION: compound 0.5 µM; ATP 10 µM
Each item that follows carries a reported residual activity.

SMILES_NOTATION | STUDY_TARGET | residual activity
O=c1c2ccccc2[nH]c(=S)n1CCN1CCC(=C(c2ccc(F)cc2)c2ccc(F)cc2)CC1 | TNK2 (human) (UniProt Q07912) | 105%
N#Cc1c(NC(=O)c2cccc3ccccc23)sc2c1CCCC2 | TNK2 (human) (UniProt Q07912) | 95.4%
N/C(=N\N=C/c1ccc(-c2cccc([N+](=O)[O-])c2)o1)N[N+](=O)[O-] | TNK2 (human) (UniProt Q07912) | 99.9%
CCCCc1c(-c2ccc(O)cc2)[nH]c2nccnc12 | TNK2 (human) (UniProt Q07912) | 49.9%
O=C(O)c1ccc2c3c1cccc3c(=O)n1c3ccccc3nc21 | TNK2 (human) (UniProt Q07912) | 101%

----------
- STUDY_TARGET: PRKD3 (human)
- PROTOCOL_NOTES: radiometric filter-binding kinase assay, Kinase HotSpot
- CONDITION_DESCRIPTION: compound 0.5 µM; ATP 10 µM
Each item that follows carries a reported residual activity.

SMILES_NOTATION | residual activity, %
O=C(c1ccccc1)c1ccc(N2CCOCC2)cc1O | 96.1
FC(F)(F)c1ccc(/C=C/c2nc(COc3ccc(CCCCn4ccnn4)cc3)co2)cc1 | 93.3
COc1cc2c(N3CCN(C(=O)Nc4ccc(OC(C)C)cc4)CC3)ncnc2cc1OCCCN1CCCCC1 | 97.3
CCOc1cc2ncnc(Nc3cccc(Br)c3)c2cc1OCC | 95.4
O=C1NC(=O)c2cc(Nc3ccc(F)cc3)c(Nc3ccc(F)cc3)cc21 | 96.7
O=C1NC(=O)c2c1c1c3ccccc3[nH]c1c1[nH]c3cc(Br)ccc3c21 | 49.5
N#CCCc1ccc2c(c1)-c1[nH]c3ccc([N+](=O)[O-])cc3c1CC(=O)N2 | 84
COc1cc2c(cc1OC)-c1[nH]nc(Nc3cccc(F)c3)c1C2 | 93.1
COc1cc2ncnc(Nc3ccc(O)c(Br)c3)c2cc1OC | 72.8
O=c1cc(N2CCOCC2)oc2c(-c3ccccc3)cccc12 | 92.5

----------
- STUDY_TARGET: EGFR (human)
- PROTOCOL_NOTES: radiometric filter-binding kinase assay, Kinase HotSpot
- CONDITION_DESCRIPTION: compound 0.5 µM; ATP 10 µM

SMILES_NOTATION | STUDY_TARGET | residual activity
COc1cc2ncnc(Nc3ccc(O)c(Br)c3)c2cc1OC | EGFR (human) | 2.22%
Nc1ncnc2c1cnn2-c1ccccc1 | EGFR (human) | 73%
CCc1nc(-c2ccc(OC)cc2)[nH]c1-c1ccncc1 | EGFR (human) | 103%
c1ccc(-c2cnc(Nc3ccc(OCCN4CCCC4)cc3)s2)cc1 | EGFR (human) | 98.3%
O=C(O)c1ccc2c3c1cccc3c(=O)n1c3ccccc3nc21 | EGFR (human) | 96.5%
O=C1NC(=O)c2c1c1c3ccccc3[nH]c1c1[nH]c3cc(Br)ccc3c21 | EGFR (human) | 100%
N#CCCc1ccc2c(c1)-c1[nH]c3ccc([N+](=O)[O-])cc3c1CC(=O)N2 | EGFR (human) | 94.4%
O=c1[nH]c2ccccc2n1C1CCN(Cc2ccc(-c3nc4cc5[nH]cnc5cc4nc3-c3ccccc3)cc2)CC1 | EGFR (human) | 99.8%
CCOc1cc2ncnc(Nc3cccc(Br)c3)c2cc1OCC | EGFR (human) | 2.02%
FC(F)(F)c1ccc(/C=C/c2nc(COc3ccc(CCCCn4ccnn4)cc3)co2)cc1 | EGFR (human) | 97.7%
O=C(c1ccccc1)c1ccc(N2CCOCC2)cc1O | EGFR (human) | 94.9%

----------
- STUDY_TARGET: ZAP70 (human) (UniProt P43403)
- Sequence (P43403 whole entry, looked up): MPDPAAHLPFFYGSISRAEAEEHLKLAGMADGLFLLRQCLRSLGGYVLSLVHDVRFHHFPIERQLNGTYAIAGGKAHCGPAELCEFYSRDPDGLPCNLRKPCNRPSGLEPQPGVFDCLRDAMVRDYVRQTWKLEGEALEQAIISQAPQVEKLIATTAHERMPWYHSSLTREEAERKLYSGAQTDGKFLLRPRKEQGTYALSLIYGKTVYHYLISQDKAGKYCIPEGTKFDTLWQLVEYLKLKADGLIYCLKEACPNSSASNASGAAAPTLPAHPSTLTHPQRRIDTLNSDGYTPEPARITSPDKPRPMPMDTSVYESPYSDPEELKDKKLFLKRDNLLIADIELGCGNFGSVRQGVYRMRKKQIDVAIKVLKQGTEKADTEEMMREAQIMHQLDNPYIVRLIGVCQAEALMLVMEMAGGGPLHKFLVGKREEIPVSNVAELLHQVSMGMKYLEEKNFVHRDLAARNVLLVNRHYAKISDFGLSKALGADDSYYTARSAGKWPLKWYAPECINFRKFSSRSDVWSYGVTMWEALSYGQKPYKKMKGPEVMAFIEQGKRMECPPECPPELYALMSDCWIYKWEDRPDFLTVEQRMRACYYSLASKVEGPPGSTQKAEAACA
- PROTOCOL_NOTES: radiometric filter-binding kinase assay, Kinase HotSpot
- CONDITION_DESCRIPTION: compound 0.5 µM; ATP 10 µM

SMILES_NOTATION | STUDY_TARGET | UNITS_SYMBOL | residual activity
COc1cc2c(Nc3ccc(Br)cc3F)ncnc2cc1OCC1CCN(C)CC1 | ZAP70 (human) (UniProt P43403) | % | 96.8
Cn1cc(/C=C2\C(=O)Nc3ccc(S(N)(=O)=O)cc32)c2ccccc21 | ZAP70 (human) (UniProt P43403) | % | 102
Nc1ncnc2c1cnn2-c1ccccc1 | ZAP70 (human) (UniProt P43403) | % | 91.5
N#Cc1c(NC(=O)c2cccc3ccccc23)sc2c1CCCC2 | ZAP70 (human) (UniProt P43403) | % | 95

----------
- STUDY_TARGET: CDK2 CCNA2 (human) (UniProt P24941+P20248)
- Sequence (P20248 whole entry, looked up, other chains not shown): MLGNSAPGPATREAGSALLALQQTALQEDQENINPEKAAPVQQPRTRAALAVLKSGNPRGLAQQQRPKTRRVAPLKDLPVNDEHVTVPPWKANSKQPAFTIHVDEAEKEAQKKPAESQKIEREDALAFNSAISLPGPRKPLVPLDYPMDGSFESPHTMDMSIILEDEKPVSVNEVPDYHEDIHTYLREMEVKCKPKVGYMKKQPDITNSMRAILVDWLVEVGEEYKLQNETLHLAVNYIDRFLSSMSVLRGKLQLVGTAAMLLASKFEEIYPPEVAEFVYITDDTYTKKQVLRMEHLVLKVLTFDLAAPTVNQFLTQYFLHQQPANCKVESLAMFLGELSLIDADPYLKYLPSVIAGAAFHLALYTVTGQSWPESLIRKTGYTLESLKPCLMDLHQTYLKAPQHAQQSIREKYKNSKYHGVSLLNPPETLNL
- PROTOCOL_NOTES: radiometric filter-binding kinase assay, Kinase HotSpot
- CONDITION_DESCRIPTION: compound 0.5 µM; ATP 10 µM
residual activity of 90% or higher: Y. Under 90%: N.

SMILES_NOTATION | ASSIGNED_CATEGORY
O=S(=O)(NCCNC/C=C/c1ccc(Br)cc1)c1cccc2cnccc12 | Y
Cc1cc(Nc2nc(-c3ccccc3)nc3ccccc23)n[nH]1 | Y
O=C(c1ccccc1)c1ccc(N2CCOCC2)cc1O | Y
CCCCc1c(-c2ccc(O)cc2)[nH]c2nccnc12 | N
COc1cc2c(Nc3ccc(Br)cc3F)ncnc2cc1OCC1CCN(C)CC1 | Y
c1ccc(-c2cnc(Nc3ccc(OCCN4CCCC4)cc3)s2)cc1 | N
N#CCCc1ccc2c(c1)-c1[nH]c3ccc([N+](=O)[O-])cc3c1CC(=O)N2 | N
N#Cc1c(NC(=O)c2cccc3ccccc23)sc2c1CCCC2 | Y
O=c1cc(N2CCOCC2)oc2c(-c3ccccc3)cccc12 | Y
O=C1NC(=O)c2c1c1c3ccccc3[nH]c1c1[nH]c3cc(Br)ccc3c21 | N
O=C(O)c1ccc2c3c1cccc3c(=O)n1c3ccccc3nc21 | N
COc1cc2c(N3CCN(C(=O)Nc4ccc(OC(C)C)cc4)CC3)ncnc2cc1OCCCN1CCCCC1 | Y
CCc1nc(-c2ccc(OC)cc2)[nH]c1-c1ccncc1 | Y
Nc1ncnc2c1cnn2-c1ccccc1 | Y
N#C/C(=C1/Nc2ccccc2S1)c1ccnc(NCCc2cccnc2)n1 | Y

----------
Each item that follows carries a reported residual activity.
- STUDY_TARGET: MAPK9 (human) (UniProt P45984)
- Sequence (P45984 whole entry, looked up): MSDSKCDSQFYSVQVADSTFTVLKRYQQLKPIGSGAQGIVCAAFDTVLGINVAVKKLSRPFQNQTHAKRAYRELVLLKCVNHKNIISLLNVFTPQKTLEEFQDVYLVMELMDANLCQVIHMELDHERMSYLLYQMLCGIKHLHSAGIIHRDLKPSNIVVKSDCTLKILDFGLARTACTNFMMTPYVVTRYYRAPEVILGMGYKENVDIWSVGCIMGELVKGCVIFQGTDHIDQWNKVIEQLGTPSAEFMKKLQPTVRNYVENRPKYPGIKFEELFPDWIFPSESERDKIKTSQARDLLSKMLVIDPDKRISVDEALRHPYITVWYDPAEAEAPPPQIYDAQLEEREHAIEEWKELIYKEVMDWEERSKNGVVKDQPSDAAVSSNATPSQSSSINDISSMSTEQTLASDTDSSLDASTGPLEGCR
- PROTOCOL_NOTES: radiometric filter-binding kinase assay, Kinase HotSpot
- CONDITION_DESCRIPTION: compound 0.5 µM; ATP 10 µM

SMILES_NOTATION | STUDY_TARGET | residual activity
O=C1NC(=O)c2c1c1c3ccccc3[nH]c1c1[nH]c3cc(Br)ccc3c21 | MAPK9 (human) (UniProt P45984) | 99.6%
COc1cc2c(N3CCN(C(=O)Nc4ccc(OC(C)C)cc4)CC3)ncnc2cc1OCCCN1CCCCC1 | MAPK9 (human) (UniProt P45984) | 103%
N#C/C(=C1/Nc2ccccc2S1)c1ccnc(NCCc2cccnc2)n1 | MAPK9 (human) (UniProt P45984) | 67.5%
O=C(O)c1ccc2c3c1cccc3c(=O)n1c3ccccc3nc21 | MAPK9 (human) (UniProt P45984) | 97.5%
CCc1nc(-c2ccc(OC)cc2)[nH]c1-c1ccncc1 | MAPK9 (human) (UniProt P45984) | 101%

----------
Each item that follows carries a reported residual activity.
- STUDY_TARGET: MLTK (human) (UniProt Q9NYL2)
- Sequence (Q9NYL2 whole entry, looked up): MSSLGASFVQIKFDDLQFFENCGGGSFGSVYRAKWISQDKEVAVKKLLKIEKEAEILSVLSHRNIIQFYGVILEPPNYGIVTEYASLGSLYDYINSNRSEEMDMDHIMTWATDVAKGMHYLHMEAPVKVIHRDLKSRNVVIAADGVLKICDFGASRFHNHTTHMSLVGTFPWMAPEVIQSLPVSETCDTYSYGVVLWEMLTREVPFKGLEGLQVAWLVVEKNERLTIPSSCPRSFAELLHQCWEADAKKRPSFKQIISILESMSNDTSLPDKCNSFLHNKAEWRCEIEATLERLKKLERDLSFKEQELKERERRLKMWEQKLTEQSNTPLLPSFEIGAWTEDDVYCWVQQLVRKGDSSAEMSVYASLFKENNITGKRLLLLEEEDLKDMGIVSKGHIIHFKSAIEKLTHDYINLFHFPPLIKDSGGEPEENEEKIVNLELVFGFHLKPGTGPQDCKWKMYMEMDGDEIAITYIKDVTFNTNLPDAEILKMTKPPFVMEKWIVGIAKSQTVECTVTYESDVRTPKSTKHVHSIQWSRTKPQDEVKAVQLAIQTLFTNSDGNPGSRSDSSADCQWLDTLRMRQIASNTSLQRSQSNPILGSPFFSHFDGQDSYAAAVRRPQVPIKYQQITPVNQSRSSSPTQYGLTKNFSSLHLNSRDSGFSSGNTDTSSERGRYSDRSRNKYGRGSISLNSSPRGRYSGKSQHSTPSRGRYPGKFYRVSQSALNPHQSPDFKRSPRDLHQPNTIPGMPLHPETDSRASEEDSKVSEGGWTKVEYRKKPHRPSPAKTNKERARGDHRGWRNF
- PROTOCOL_NOTES: radiometric filter-binding kinase assay, Kinase HotSpot
- CONDITION_DESCRIPTION: compound 0.5 µM; ATP 10 µM
MEASURE: residual activity (%)

SMILES_NOTATION | EXPERIMENTAL_RESULT
O=S(=O)(NCCNC/C=C/c1ccc(Br)cc1)c1cccc2cnccc12 | 105
CCc1nc(-c2ccc(OC)cc2)[nH]c1-c1ccncc1 | 106
O=c1[nH]c2ccccc2n1C1CCN(Cc2ccc(-c3nc4cc5[nH]cnc5cc4nc3-c3ccccc3)cc2)CC1 | 106

----------
Each item that follows carries a reported residual activity.
- STUDY_TARGET: STK17A (human) (UniProt Q9UEE5)
- Sequence (Q9UEE5 whole entry, looked up): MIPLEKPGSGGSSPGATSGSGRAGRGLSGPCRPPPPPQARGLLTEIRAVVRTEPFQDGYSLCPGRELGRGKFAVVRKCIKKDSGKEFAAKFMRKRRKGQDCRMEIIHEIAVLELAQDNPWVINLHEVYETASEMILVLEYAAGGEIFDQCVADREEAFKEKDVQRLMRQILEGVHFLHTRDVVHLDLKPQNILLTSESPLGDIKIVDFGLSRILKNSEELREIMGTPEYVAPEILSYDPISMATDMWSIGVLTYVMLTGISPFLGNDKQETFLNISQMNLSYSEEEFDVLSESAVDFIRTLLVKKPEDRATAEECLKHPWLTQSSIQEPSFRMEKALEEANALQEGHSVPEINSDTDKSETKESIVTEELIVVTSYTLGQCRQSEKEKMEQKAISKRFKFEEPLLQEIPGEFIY
- PROTOCOL_NOTES: radiometric filter-binding kinase assay, Kinase HotSpot
- CONDITION_DESCRIPTION: compound 0.5 µM; ATP 10 µM
MEASURE: residual activity (%)

SMILES_NOTATION | UNITS_SYMBOL | EXPERIMENTAL_RESULT
N#Cc1c(NC(=O)c2cccc3ccccc23)sc2c1CCCC2 | % | 104
CCOc1cc2ncnc(Nc3cccc(Br)c3)c2cc1OCC | % | 98.9
N/C(=N\N=C/c1ccc(-c2cccc([N+](=O)[O-])c2)o1)N[N+](=O)[O-] | % | 100
Cn1cc(/C=C2\C(=O)Nc3ccc(S(N)(=O)=O)cc32)c2ccccc21 | % | 57.5
N#CCCc1ccc2c(c1)-c1[nH]c3ccc([N+](=O)[O-])cc3c1CC(=O)N2 | % | 46.8
Nc1ncnc2c1cnn2-c1ccccc1 | % | 102
O=c1c(-c2ccc(F)cc2)c(-c2ccncc2)[nH]n1-c1ccc(Cl)cc1 | % | 105
COc1cc2c(Nc3ccc(Br)cc3F)ncnc2cc1OCC1CCN(C)CC1 | % | 92.4
O=c1[nH]c2ccccc2n1C1CCN(Cc2ccc(-c3nc4cc5[nH]cnc5cc4nc3-c3ccccc3)cc2)CC1 | % | 98.2
CCc1nc(-c2ccc(OC)cc2)[nH]c1-c1ccncc1 | % | 96.1
COc1cc2c(cc1OC)-c1[nH]nc(Nc3cccc(F)c3)c1C2 | % | 87
